- measurement.notes: yeast display, Sf9 membrane polyspecificity reagent, FACS + sequencing; frameworks hold sequencing errors

seq	polyreactivity (PSR sort gate)
QVQLVESGGGLVQAGGSLRLSCAASGSIFGANAMGWYRQAPGKERELVAAISTRGGRTYYADSVKGRFTISRDIAKNTVYLQMNSLKPEDTAVYYCAAYSSYPEYRRGKYDYWGQGTQVTVSS	high polyreactivity
QVQLVESGGGLVQAGGSLRLSCAASGSIFSYYAMGWYRQAPGKETEVVAAISQNGGSTYYADSVKGRVTISRDNAKNTVYLQMNSLKPEDTAVYYCNAYSVYVRGEYWGQGTQVTVSS	high polyreactivity

###

- measurement.notes: yeast display, Sf9 membrane polyspecificity reagent, FACS + sequencing; frameworks hold sequencing errors
reported.metric: polyreactivity (PSR sort gate)

Illustrative cases are given below, each with its answer.
seq	polyreactivity (PSR sort gate)
QVQRVESGGGLVQARGSLRLSCAASGLIFPPNVMGWYRQAPGKESEFVAAITSSGSTNYADSVKGRFTISRDNAKYTVYIQMNSLKPEDTAVYYCARDQTWSYQPWYYLSYPQYEYWGQGTEVTVSS	low polyreactivity
QVQRVESGGGLVQAGGSLRLSCAPSAIIIYYYAMGCYRQAPGNEMELVAGISYSGGSTYADSVKGRLTISRDNAKNTVYLQMNSLKPEDTAVYFCAADYDYGGHWYDYWGQGTQVTVSS	low polyreactivity
QVQLVESGGGLVQAGGSLRLSCAASGRIFRGNAMGWYRQAPGKERELVARITGNDGDTYYADSVKGRFTISRDNAKNTVYLQMNSLKPEDTAVYYCATDTSSYRRRYYYWGQGTQVTVSS	low polyreactivity
QVQLVESGGGLVQAGGSLLLSSAASGINFGNYAMGWYRQAPGKERELVATIDSAGSPYYADSVNGRFTISRDNAKNTVYLQMNSLKPEDTAVYYCAVRFGTYGRYFGYDYWGQGTQVTVSS	high polyreactivity

Input: Recall and state the measured polyreactivity (PSR sort gate) for QVQLVESGGGLVQAGGSLRLSCAASGRTFNRNAMGWYRQAPGKERELVASITSRGGSTYYADSVKGRFTISRDNAKNTVYLQMNSLKPEDTAVYYCNATPKFFGRYWGYDYWGQGTQVTVSS .
Output: high polyreactivity

###

- measurement.notes: yeast display, Sf9 membrane polyspecificity reagent, FACS + sequencing; frameworks hold sequencing errors
reported.metric: polyreactivity (PSR sort gate)

Recorded results for 4 sequences are shown here.
seq	polyreactivity (PSR sort gate)
QVQLVESGGGLVQAGGSLRLSSAASGSIFDKNAMGWYRQAPGKERELVAAIRRTSTTYYADSVKGRFTISRDNAKNTVFLKMNSLKPEDTAVYYCAATYGSGYWYPRYYYWGQGTEVTVSS	high polyreactivity
QVQLVESGGGLVQAGGSLRLSCAASGSIFRSYAMGWYRQAPGKERELVAAITNGGSTYYADSVKGRFTISRDNAKNTVYLQINSLKPEDTAVYYCAAARYTYWFYLVKKTGYYWGQGTQVTVSS	high polyreactivity
QVQLVESGGGLVQAGGSLRLSCAASGRIFRGNAMGWYRQVPGKERELVAAISSGTRTTYADSVKGRFTISRDNAKNTVYLQMNSLKPEDTAVYYCAARTSNYPRWRVGGYSYDYWGQGTQVTVSS	high polyreactivity
QVQLVESGGGLVQAGGSLRISCAASGSTFDENAMGWYRQAPGKERELVAVISDSGGSTYYADSVKGRFTISRDNAKNTVYLQMNSLKPEDTAVYYCAKDVPPVYPTSSYDYWGQGTQVTVSS	low polyreactivity

Batch: polyreactivity (PSR sort gate) for all items listed.
1. RLVQAGGSLRLSCAASGRIFGTYAMGWYRQAPGKERELVAAITQSGGRTYYADSVKGRFTISRDNAKNSVYLQMNSLKPEDTAVYYCNKVTYRGIGLGYDYWGQGTQVTVSS
2. QVQLVESGGGIVQAGGSLRLSCAASGMGWYRQAPGKERELVADITSRGGSTYYADSVKGRFTISRDNAKITVYLQMNSLKPEDTAVSYCAARKRVVQFDYWGQGTQVTVSS
3. QFQLVESGGGLVQAGGSLRLSCAASGSTINPNTMVWSREAPGKERELVAVISSGGSTYYADSVKGRFTISRDNATNTVYLQMNSLKPEDSAVYYCAADRGTVSYLYCPRAVYYWGQGTQVTVSS
4. QVQLVESGGGLVQAGGSLRLSCAASGSTFGYYAMGWYRQAPGKERELVAAIRWSGSTYYADSVKGRFTISRDNAKNTVYLQMNSLKPEDTAVYYCAADFVKRQANRQFDYWGQGTQVTVSS

Output:
1: high polyreactivity; 2: low polyreactivity; 3: low polyreactivity; 4: high polyreactivity

Provide the reported polyreactivity (PSR sort gate) of each entry below, same order.
1. QVQLVESGGGLVQAGGSLRLSCAASGIIFSKNTMGWYRQAPGKERELVAAISRSGGTSTYYADSVKGRFTISRDNAKNTVYLQMNSLKPEDTAVYYCAAGVPRIGGYYYWGQGTQVTVSS
2. QVQLVESGGGLVQAGGSLRLSCAASGFTFRYNAMGWYRQAPGKERELVAAITSDVSTNYADSVKGRFTISRDNAKNTVYLEMNSLKAEDTAVYYCAKGTAKRIVGRSPGNTYEDHYWGQGTEVTVSS
3. QVQLVESGGGLVQAGGSLRLSCAASGIIFYAYAMGWYRQAPGKERELVAAITFSAVSTYYADSVKGRFTISRDNAKNTVYLQMNSLKPEDTAVYYCAVDREWPGYYYAISKMYYWGQGTQVTVSS

Output:
1: low polyreactivity; 2: low polyreactivity; 3: low polyreactivity

###

- measurement.notes: yeast display, Sf9 membrane polyspecificity reagent, FACS + sequencing; frameworks hold sequencing errors
reported.metric: polyreactivity (PSR sort gate)

seq	polyreactivity (PSR sort gate)
QVQLVESGGGLVQAGGSLRLSCAASGSIFDNAMGWYRQAPGKERELVAAISLSGSRTYYADSVKGRFTISRDNAKNTVYLQMNSLKPEDTAVYYCNTELVYYSTYDYWGQGTQVTVSS	low polyreactivity
QVQLVESGGGLVQAGGSLRISCAASGRTFVVYAMGWYRPAPGKERELVAAIRGSGGSTNYADSVKGRFTISRDNAKNTVYLQMNSLKPEDTAVYYCAATSSLGDFRYDYWGQGTQVTVSS	high polyreactivity
QVQLEESVGGLVQAGRSLRLSCASSGTTFYYYALGWYRQAPGKERELVATIDSGTSTYYADSVKGRFTISRDNAKNTVYLQMNSLKPEDTAVYYCAAKTWSWSYGYNYWGQGTQVTVSS	low polyreactivity
QVQLVDSGGGLVQAGGSLRLSSAASGFIFYEYAMGWYRQAPGKEMELVAAITSGGSTDYADSVKGRFSSSRDNAKNTVYLQMNCMKPDDTAVYYCNADLLTGYYWYKYWGQGTQVSVSS	low polyreactivity

# next sequence below
Input: Dear colleague, please send me the reported polyreactivity (PSR sort gate) for QVQLVESGGGLVQAGGSLRLSCAASGFIFGKYAMGWYRQAPGKEREVVAAITSGGSTYYADSVKGRFTISRDNAKNTVYLQMNSLKPEDTAVYYCAVPFTFWWSSYRYDYWGQGTQVTVSS when you can.
Output: high polyreactivity

###

- measurement.notes: yeast display, Sf9 membrane polyspecificity reagent, FACS + sequencing; frameworks hold sequencing errors
reported.metric: polyreactivity (PSR sort gate)

Study these solved cases before continuing.
seq	polyreactivity (PSR sort gate)
QVQLVESGGGLVQAGGSLRLSCAASGIIFSWYAMGWYRQAPGKERELVATISGGGGSTYYADSVKGRFTISRDNAKNTVYLQMNSLKPEDTAVYYCAADYWNFNWRYKLYRPYDYWGQGTQVTVSS	high polyreactivity
QVQLVESGGGLVQAGGSLRLSCAASGRTFKTYAMGWYRQAPGKERELVAAIDSGGNTYADSVKGRFTISRDNAKNTVYLQMNSLKPEDTAVYYCAVDGGEFSSYGYWGHGTQVTVSS	low polyreactivity
QVQLVESGGGLVQAGGSLRLICAASGITFRRYGMGWYRQAPGKERELVATITSSVGSRTYYADSVKGRLTISRDNAKNTVYLQMNSLKPEDTAVYYCAADHRVYDYEYWGQGTQVTVSS	low polyreactivity
QVQLVDSGGGLVQAGGSLRLSCAASGFIFVDYVMGWSRQAPGKERELVAAITRGGSTNYADSVKGRFTISRDNAKNTVYLQMNSLKPEDTAVYYCAVRWYRKYNYWGQGTQVTVSS	high polyreactivity
QVQLVESGGGLVLAGGSLRLSCAASGITFFTYTMGWYRQAPGKERELVARIRWDGGSTYYADSVKGRFTISRDNAKNTVYLQMNSLKPEDTAVYYCAADYPYSTYDYWGQGTQVTVSS	low polyreactivity

Fill in polyreactivity (PSR sort gate) for each of the 3 sequences listed.
1. QVQLVESGGGLVQAGGSLRLSCAASGRTFAYNAMGWYRQAPGKERELVADITSGGSTYYADSVKGRFTISRDNAKNTVYLQMNSLKPEDTAVYYCAAYPQFWYWDYNYWGQGTQVTVSS
2. QVQLVESGGGLVQAGGSLRLSCAASGFTFIPNAMGWYRQATGKERELVAAISTGGSTYYADSVKGRFTISRDNAKNTVSLQMNSLKPEDTAVYYCAAGILDLKLYFSSYDYWGQGTQVTVSS
3. QVQLVESGGGLVQAGGSLRLSCAASGRTFYDYAMGWYRQAPGKERELVASINSDGSTYYADSVKGRFTISLDNAKNTVYLQMNSLKPEDTAVYYCAADALLYSVYYRMYGYDYWGQGTQVTVSS

Output:
["high polyreactivity", "low polyreactivity", "low polyreactivity"]

For each of the items listed, what is its polyreactivity (PSR sort gate)?
1. QVQLVESGGGLVQAGGSLRLSCAASGFTFTTNAMGWYRQAPGKERELVAAISKRGTRTYYADSVKGRFTISRDNAKNTVYLQMNSLKPEDTAVYYCAAASVAGDKFDYWGQGSQVTVSS
2. QVQLVESGGGLVQAGGSLRLSCAASGNTFNVYAMGWYRQAPGKERELVAAITLSGGSTYYADSVKGRFTISRDNEKNTVYLQMNSLKPEDTAVYYCNAEEDGTDYDYWGQGTQVTVSS
3. QVQLVESGGGLVQAGGSLRLSCAASGLTFTLNAMGWYRQAPGKERELVATISQDGGGTTYADSVKGRFTISRDNAKNTVYLQMNSLKPEDTAVYYCATTLPPSVWGEWSGTRYPYDYWGQGTQVTVSS

Output:
1. high polyreactivity
2. low polyreactivity
3. low polyreactivity
